B1: library; numbered along this chain (parent)
chain: MATDAALRRLLRLHRTEIAVAVDSAFPLLHALADHDVVPEDKFQETLHLKEKEGCPQAFHALLSWLLTQDSTAILDFWRVLFKDYNLERYGRLQPILDSFPKDVDLSQPRKGRKPPAVPKALVPPPRLPTKRKASEEARAAAPAALTPRGTASPGSQLKAKPPKKPESSAEQQRLPLGNGIQTMSASVQRAVAMSSGDVPGARGAVEGILIQQVFESGGSKKCIQVGGEFYTPSKFEDSGSGKNKARSSSGPKPLVRAKGAQGAAPGGGEARLGQQGSVPAPLALPSDPQLHQKNEDECAVCRDGGELICCDGCPRAFHLACLSPPLREIPSGTWRCSSCLQATVQEVQPRAEEPRPQEPPVETPLPPGLRSAGEEVRGPPGEPLAGMDTTLVYKHLPAPPSAAPLPGLDSSALHPLLCVGPEGQQNLAPGARCGVCGDGTDVLRCTHCAAAFHWRCHFPAGTSRPGTGLRCRSCSGDVTPAPVEGVLAPSPARLAPGPAKDDTASHEPALHRDDLESLLSEHTFDGILQWAIQSMARPAAPFPS

Variants of: B1
run.description: AIRE transcriptional activation functional score (insulin promoter-GFP; nonsense median 0, synonymous median 1) (normalised score); higher = higher AIRE activity (more reporter activation)
details: with insulin promoter-GFP reporter in HEK293
Reported AIRE transcriptional activation functional score values follow for various variants
// no unit string in output, number only

INSERT INTO measurements (alteration, recorded_value) VALUES
  ('L417V', 0.708);

Form field AIRE transcriptional activation functional score, entry `S338Q` : 0.916

Just so you know, measured AIRE transcriptional activation functional score for `T72C` came out at 0.562
